- TESTED_ON: human F508del CFTR (Homo sapiens, UniProt P13569, DEL508-508)
- Construct: expressed in transfected cells; host or cells: Fisher Rat Thyroid (FRT) cells
- Sequence (P13569 with tags, fused parts or gaps DEL508-508): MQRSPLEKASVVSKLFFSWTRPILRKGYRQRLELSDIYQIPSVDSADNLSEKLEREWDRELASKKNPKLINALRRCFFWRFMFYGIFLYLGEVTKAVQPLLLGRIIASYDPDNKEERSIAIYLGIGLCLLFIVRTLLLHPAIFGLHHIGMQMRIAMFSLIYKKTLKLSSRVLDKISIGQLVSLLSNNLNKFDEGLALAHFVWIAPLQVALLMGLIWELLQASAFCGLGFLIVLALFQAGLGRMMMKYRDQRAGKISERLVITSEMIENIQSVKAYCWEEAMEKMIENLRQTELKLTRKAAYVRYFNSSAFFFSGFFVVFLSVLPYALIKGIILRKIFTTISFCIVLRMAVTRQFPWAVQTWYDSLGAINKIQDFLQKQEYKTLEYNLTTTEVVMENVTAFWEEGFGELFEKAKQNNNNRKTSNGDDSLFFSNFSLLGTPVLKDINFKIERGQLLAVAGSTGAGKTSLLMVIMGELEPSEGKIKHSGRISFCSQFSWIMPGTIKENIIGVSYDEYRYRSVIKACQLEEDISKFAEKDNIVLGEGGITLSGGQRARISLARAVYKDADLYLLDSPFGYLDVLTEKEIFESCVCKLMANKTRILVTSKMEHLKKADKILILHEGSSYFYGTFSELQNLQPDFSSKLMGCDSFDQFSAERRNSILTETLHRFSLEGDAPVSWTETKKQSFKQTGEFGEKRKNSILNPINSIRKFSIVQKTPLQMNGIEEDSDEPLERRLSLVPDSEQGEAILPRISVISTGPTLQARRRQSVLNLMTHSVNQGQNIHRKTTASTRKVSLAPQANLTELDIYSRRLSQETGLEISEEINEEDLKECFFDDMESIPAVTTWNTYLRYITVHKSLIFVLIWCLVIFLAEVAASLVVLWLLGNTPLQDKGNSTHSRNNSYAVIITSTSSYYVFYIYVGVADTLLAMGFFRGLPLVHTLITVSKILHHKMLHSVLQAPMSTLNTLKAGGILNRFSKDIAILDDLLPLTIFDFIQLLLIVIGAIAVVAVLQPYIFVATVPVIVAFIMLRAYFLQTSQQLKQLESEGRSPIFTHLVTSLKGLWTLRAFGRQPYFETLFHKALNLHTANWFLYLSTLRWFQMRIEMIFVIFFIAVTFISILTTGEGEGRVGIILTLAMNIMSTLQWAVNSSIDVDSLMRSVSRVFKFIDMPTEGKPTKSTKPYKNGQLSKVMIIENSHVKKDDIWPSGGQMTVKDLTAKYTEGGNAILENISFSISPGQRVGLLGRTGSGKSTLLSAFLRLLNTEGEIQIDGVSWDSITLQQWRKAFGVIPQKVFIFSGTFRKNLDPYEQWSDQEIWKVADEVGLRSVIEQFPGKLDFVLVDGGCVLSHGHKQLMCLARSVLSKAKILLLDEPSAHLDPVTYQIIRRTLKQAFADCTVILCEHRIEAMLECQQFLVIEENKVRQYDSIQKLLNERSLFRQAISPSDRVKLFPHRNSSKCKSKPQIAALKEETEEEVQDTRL
- ASSAY_PROTOCOL: CFTR-YFP High Throughput Assay
- Assay type: cell-based
- MEASUREMENT_PARAMETERS: EMax normalized to the positive control; FRT cells expressing human F508del CFTR and YFP; read-out: % Efficacy
Emax values by entry

A selection of reference data follows.
{"columns": ["MOL", "Emax"],
 "data": [
  ["CCOc1ccc(N(CC)C(=O)c2nn(C(C)C)c(=O)c3c2c2ccccc2n3C)cc1", "30 to 80%"],
  ["CCN(C(=O)c1nn(C[C@@H](O)COC)c(=O)c2c1c1ccccc1n2C)c1ccccc1", "30 to 80%"],
  ["Cc1ccc(-n2nc(C(=O)N3CCN(Cc4ccccc4)CC3)c3c4ccccc4n(C)c3c2=O)cc1", "30 to 80%"]
]}

Exam item: What value of Emax has been recorded for this entry: CCOC(=O)c1ccc2c(-c3cccc(Cl)c3)nn(CC(=O)N(C)c3ccc4nc(C)oc4c3)c(=O)c2c1
Marked response: > 80%
